assay: Gelling of water-immiscible cosmetic liquids in 96 well glass micro-titre plate; format: physicochemical; design: key: gel; g4: gel after overnight (18 hrs) storage at 4° C.; g22: gel after overnight (18 hrs) storage at 22° C.; sg: soft gel; sg22: soft gel after overnight (18 hrs) storage at 22° C.; solution; *: the test at 4° C. was not carried out; details: 5% cellobiose ester in Fluid AP

- Molecule: "CCCCCCCCCC(=O)OCC1OC(OC2C(COC(=O)CCCCCCCCC)OC(OC(C)=O)C(OC(=O)CCCCCCCCC)C2OC(=O)CCCCCCCCC)C(OC(=O)CCCCCCCCC)C(OC(=O)CCCCCCCCC)C1OC(=O)CCCCCCCCC (mixture of isomers) [Ex 2.4]"
  gelling of Fluid AP: "gel"
- Molecule: "CCCCCCCCCC(=O)OCC1OC(OC2C(COC(=O)CCCCCCCCC)OC(OC(=O)c3ccc4ccccc4c3)C(OC(=O)CCCCCCCCC)C2OC(=O)CCCCCCCCC)C(OC(=O)CCCCCCCCC)C(OC(=O)CCCCCCCCC)C1OC(=O)CCCCCCCCC (mixture of isomers)"
  gelling of Fluid AP: "gel"
- Molecule: "CCCCCCCCCCCC(=O)OC1OC(COC(=O)CCCCCCCC)C(OC2OC(COC(=O)CCCCCCCC)C(OC(=O)CCCCCCCC)C(OC(=O)CCCCCCCC)C2OC(=O)CCCCCCCC)C(OC(=O)CCCCCCCC)C1OC(=O)CCCCCCCC (mixture of isomers)"
  gelling of Fluid AP: "sg"
- Molecule: "CCCCCCCCC(=O)OCC1OC(OC2C(COC(=O)CCCCCCCC)OC(OC(=O)C3CCCC3)C(OC(=O)CCCCCCCC)C2OC(=O)CCCCCCCC)C(OC(=O)CCCCCCCC)C(OC(=O)CCCCCCCC)C1OC(=O)CCCCCCCC (mixture of isomers)"
  gelling of Fluid AP: "sg22"
- Molecule: "CCCCCCCCCC(=O)OCC1OC(OC2C(COC(=O)CCCCCCCCC)OC(OC(C)=O)C(OC(=O)CCCCCCCCC)C2OC(=O)CCCCCCCCC)C(OC(=O)CCCCCCCCC)C(OC(=O)CCCCCCCCC)C1OC(=O)CCCCCCCCC (mixture of isomers) [Ex 2.5]"
  gelling of Fluid AP: "gel"
- Molecule: "CCCCCCCCC(=O)OCC1OC(OC2C(COC(=O)CCCCCCCC)OC(OC(=O)c3ccccc3)C(OC(=O)CCCCCCCC)C2OC(=O)CCCCCCCC)C(OC(=O)CCCCCCCC)C(OC(=O)CCCCCCCC)C1OC(=O)CCCCCCCC (mixture of isomers) [Ex 1.2]"
  gelling of Fluid AP: "sg"
- Molecule: "CCCCCCCCC(=O)OCC1OC(OC2C(COC(=O)CCCCCCCC)OC(OC(C)=O)C(OC(=O)CCCCCCCC)C2OC(=O)CCCCCCCC)C(OC(=O)CCCCCCCC)C(OC(=O)CCCCCCCC)C1OC(=O)CCCCCCCC (mixture of isomers) [Ex 1.7]"
  gelling of Fluid AP: "gel"
- Molecule: "CCCCCCCCCCCCCCCC(=O)OC1OC(COC(=O)CCCCCCCCC)C(OC2OC(COC(=O)CCCCCCCCC)C(OC(=O)CCCCCCCCC)C(OC(=O)CCCCCCCCC)C2OC(=O)CCCCCCCCC)C(OC(=O)CCCCCCCCC)C1OC(=O)CCCCCCCCC (mixture of isomers) [Ex 2.12]"
  gelling of Fluid AP: "gel"
- Molecule: "CCCCCCCCCC(=O)OCC1OC(OC2C(COC(=O)CCCCCCCCC)OC(OC(=O)CCCCC)C(OC(=O)CCCCCCCCC)C2OC(=O)CCCCCCCCC)C(OC(=O)CCCCCCCCC)C(OC(=O)CCCCCCCCC)C1OC(=O)CCCCCCCCC (mixture of isomers)"
  gelling of Fluid AP: "gel"
- Molecule: "CCCCCCCCC(=O)OCC1OC(OC2C(COC(=O)CCCCCCCC)OC(OC(C)=O)C(OC(=O)CCCCCCCC)C2OC(=O)CCCCCCCC)C(OC(=O)CCCCCCCC)C(OC(=O)CCCCCCCC)C1OC(=O)CCCCCCCC (mixture of isomers) [Ex 1.5]"
  gelling of Fluid AP: "gel"
- Molecule: "CCCCCCCCC(=O)OCC1OC(OC2C(COC(=O)CCCCCCCC)OC(OC(=O)c3ccc(-c4ccccc4)cc3)C(OC(=O)CCCCCCCC)C2OC(=O)CCCCCCCC)C(OC(=O)CCCCCCCC)C(OC(=O)CCCCCCCC)C1OC(=O)CCCCCCCC (mixture of isomers)"
  gelling of Fluid AP: "gel"
- Molecule: "CCCCCCCCC(=O)OCC1OC(OC2C(COC(=O)CCCCCCCC)OC(OC(C)=O)C(OC(=O)CCCCCCCC)C2OC(=O)CCCCCCCC)C(OC(=O)CCCCCCCC)C(OC(=O)CCCCCCCC)C1OC(=O)CCCCCCCC (mixture of isomers) [Ex 1.6]"
  gelling of Fluid AP: "sg"
- Molecule: "CCCCCCCCCCCCCCCC(=O)OC1OC(COC(=O)CCCCCCCCC)C(OC2OC(COC(=O)CCCCCCCCC)C(OC(=O)CCCCCCCCC)C(OC(=O)CCCCCCCCC)C2OC(=O)CCCCCCCCC)C(OC(=O)CCCCCCCCC)C1OC(=O)CCCCCCCCC (mixture of isomers) [Ex 2.13]"
  gelling of Fluid AP: "gel"
- Molecule: "CCCCCCCCC(=O)OCC1OC(OC2C(COC(=O)CCCCCCCC)OC(OC(=O)CCCCC)C(OC(=O)CCCCCCCC)C2OC(=O)CCCCCCCC)C(OC(=O)CCCCCCCC)C(OC(=O)CCCCCCCC)C1OC(=O)CCCCCCCC (mixture of isomers)"
  gelling of Fluid AP: "gel"
- Molecule: "CCCCCCCCCCCCCCCC(=O)OC1OC(COC(=O)CCCCCCCC)C(OC2OC(COC(=O)CCCCCCCC)C(OC(=O)CCCCCCCC)C(OC(=O)CCCCCCCC)C2OC(=O)CCCCCCCC)C(OC(=O)CCCCCCCC)C1OC(=O)CCCCCCCC (mixture of isomers) [Ex 1.8]"
  gelling of Fluid AP: "gel"
